Measured values drawn from PubChem BioAssay AID272 for this set.

Tested on: Lewis lung carcinoma i.m., BDF1 mice, T/C %
ASSAY NOTES: NCI In Vivo Anticancer Drug Screen. Data for tumor model Lewis Lung Carcinoma (intramuscular) in B6D2F1 (BDF1) mice
CONDITION: endpoint: median survival time; dose: 50.0 mg/kg/injection; schedule: Q01DX011 (ip); vehicle: saline; higher = longer survival
Results filed as inconclusive are left out.
REPORTED PROPERTY: T/C

*Q* # get_value(readout='T/C', item= `CSc1ncnc2nc[nH]c12` )
*A* 90 % of control

*Q* Follow-up item: `N#CSCc1ccc(Cl)cc1Cl`
*A* 95 % of control

*Q* Also CCCC(=O)Nc1ncnc2c1ncn2C1OC2COP(=O)(O)OC2C1OC(=O)CCC (stereo unspecified) , if possible.
*A* 118 % of control

*Q* // query: `C[C@]12C=CC(=O)C=C1CC[C@@H]1[C@@H]2C(=O)C[C@@]2(C)[C@H]1CC[C@]2(O)C(=O)CO`
*A* 104 % of control

*Q* Next entry: `O=c1[nH]c2cc(Cl)ccc2c(CCl)c1Cl`
*A* 102 % of control

*Q* Next compound: `CN(Cc1ccccc1)/N=N/c1nc[nH]c1C(N)=O`
*A* 91 % of control

---

Would you kindly list T/C for each of these compounds?
Test system: Lewis lung carcinoma i.m., BDF1 mice, T/C %
ASSAY NOTES: NCI In Vivo Anticancer Drug Screen. Data for tumor model Lewis Lung Carcinoma (intramuscular) in B6D2F1 (BDF1) mice
CONDITION: endpoint: median survival time; dose: 12.5 mg/kg/injection; schedule: Q01DX011 (ip); vehicle: saline with Tween-80; higher = longer survival
Procedure: The antitumor activity of compounds was measured in mice bearing transplantable tumors. Survival or tumor size were measured and the results are expressed as the measurement made in the treated group (T) divided by the measurement made in the vehicle treated control group (C). The tumor model used in this assay is Lewis Lung Carcinoma (intramuscular) in B6D2F1 (BDF1) mice
Inconclusive results are not listed.

*Q* Reported T/C, compound `COc1ccc2c(Nc3ccc(NS(C)(=O)=O)cc3)c3ccccc3nc2c1` : ____
*A* 107 % of control

*Q* Likewise for `CCCCn1cnc2c(N)ncnc21` ?
*A* 93 % of control

*Q* Lookup `CCC/C(C)=N/Nc1ccccn1`
*A* 94 % of control

*Q* Now the compound `Nc1cc(I)c2cccnc2c1O`
*A* 108 % of control

*Q* Proceed to `Clc1ccc2nc(CBr)cnc2c1`
*A* 105 % of control

*Q* What do you have for O=[N+]([O-])c1cc(S(=O)(=O)OCC2CO2)ccc1Cl (stereo not drawn) ?
*A* 90 % of control

*Q* Subsequent entry: `CCCCNC(C)(C)COC(=O)/C=C/c1ccc(OCCCC)cc1`
*A* 88 % of control

*Q* Same read-out for `C=CCNC(=O)NCC=C` ?
*A* 108 % of control

*Q* What do we get for `Cc1nc2ccccc2nc1CBr` ?
*A* 88 % of control

*Q* And what about the compound `CC(=O)c1ccc(Oc2ccc(/C(C)=N\N=C(N)N)cc2)cc1` ?
*A* 91 % of control

*Q* Similarly, `Nc1ncnc2c1ncn2Cc1ccccc1` ?
*A* 89 % of control

*Q* Now try `O=[N+]([O-])c1cc([N+](=O)[O-])c(Nn2c3ccccc3c3ccccc32)c([N+](=O)[O-])c1` .
*A* 97 % of control

*Q* Same for `CCCCCCCCCCCCCCCC(=O)N(C/C=C/CN(CCCN(C)C)C(=O)CCCCCCCCCCCCCCC)CCCN(C)C`
*A* 92 % of control
